// provenance: PubChem BioAssay AID1963863

# System: 931267-113-T-J1-PDC KRAS spheroid with HUVEC/MSC, viability
# ASSAY PROTOCOL: Anticancer human tumor 931267-113-T-J1-PDC patient-derived colon adenocarcinoma cell line growth inhibition [KRAS2]
# EXPERIMENTAL CONDITIONS: second compound 10 µM; first compound 10 µM; active compounds read low
# Excerpt: Multicellular complex tumor spheroid response to RAS pathway inhibitors in combination with a targeted agents in patient-derived cell lines with oncogenic KRAS variants from multiple cancer types A high-throughput screen of multi-cell type tumor spheroids was designed to identify active combinations of targeted small molecules and KRAS pathway inhibitors. […] Compounds. […] If the clinical Cmax for an agent had not been determined, the highest concentration tested was 10 microM. […]
Parameter viability, T/C: see the listing below.
QUANTITY NAME: viability, T/C (%)

• CCNC(=O)CC1N=C(c2ccc(Cl)cc2)c2cc(OC)ccc2-n2c(C)nnc21 (stereo not drawn) + COc1cc2nc(C)nc(NC(C)c3cc(N)cc(C(F)(F)F)c3)c2cc1OC1CCOC1 = 0.42
• CC1(C)CCC(CN2CCN(c3ccc(C(=O)NS(=O)(=O)c4ccc(NCC5CCOCC5)c([N+](=O)[O-])c4)c(Oc4cnc5[nH]ccc5c4)c3)CC2)=C(c2ccc(Cl)cc2)C1 + CC1OCC2(CCN(c3cnc(Sc4ccnc(N)c4Cl)c(N)n3)CC2)C1N = 0.28
• CC1OCC2(CCN(c3cnc(Sc4ccnc(N)c4Cl)c(N)n3)CC2)C1N (stereo not drawn) + CNCc1ccccc1-c1csc(C(C)Nc2nc(C)nc3cc(OC)c(OC)cc23)c1 = 0.17
• COC(=O)c1ccc2c(C(=Nc3ccc(N(C)C(=O)CN4CCN(C)CC4)cc3)c3ccccc3)c(O)[nH]c2c1 + CNCc1ccccc1-c1csc(C(C)Nc2nc(C)nc3cc(OC)c(OC)cc23)c1 = 0.29
• CCNC(=O)CC1N=C(c2ccc(Cl)cc2)c2cc(OC)ccc2-n2c(C)nnc21 (stereo not drawn) + CC1OCC2(CCN(c3cnc(Sc4ccnc(N)c4Cl)c(N)n3)CC2)C1N = 14.2
• CC1(C)CCC(CN2CCN(c3ccc(C(=O)NS(=O)(=O)c4ccc(NCC5CCOCC5)c([N+](=O)[O-])c4)c(Oc4cnc5[nH]ccc5c4)c3)CC2)=C(c2ccc(Cl)cc2)C1 + COc1cc2nc(C)nc(NC(C)c3cc(N)cc(C(F)(F)F)c3)c2cc1OC1CCOC1 = 0.84
• Cn1nccc1Nc1nccc(-c2cc3c(s2)C(C)(C)N(CCN2CCOCC2)C3=O)n1 + CNCc1ccccc1-c1csc(C(C)Nc2nc(C)nc3cc(OC)c(OC)cc23)c1 = 0.42
• CC(C)NCC(C(=O)N1CCN(c2ncnc3c2C(C)CC3O)CC1)c1ccc(Cl)cc1 (stereo not drawn) + COc1cc2nc(C)nc(NC(C)c3cc(N)cc(C(F)(F)F)c3)c2cc1OC1CCOC1 = 0.48

---

# viability, T/C annotations
# System: 931267-113-T-J1-PDC KRAS spheroid with HUVEC/MSC, viability
# ASSAY PROTOCOL: Anticancer human tumor 931267-113-T-J1-PDC cell line growth inhibition [KRAS2];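 also: compound exposure lasted 7 days before the readout; 100% = DMSO vehicle control viability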
# EXPERIMENTAL CONDITIONS: second compound 10 µM; first compound 0.0316 µM; active compounds read low
# Text: Multicellular complex tumor spheroid response to RAS pathway inhibitors in combination with a targeted agents in patient-derived cell lines with oncogenic KRAS variants from multiple cancer types A high-throughput screen of multi-cell type tumor spheroids was designed to identify active combinations of targeted small molecules and KRAS pathway inhibitors. […] Compounds. […] If the clinical Cmax for an agent had not been determined, the highest concentration tested was 10 microM. […]
QUANTITY NAME: viability, T/C (%)

• CC1(C)CCC(CN2CCN(c3ccc(C(=O)NS(=O)(=O)c4ccc(NCC5CCOCC5)c([N+](=O)[O-])c4)c(Oc4cnc5[nH]ccc5c4)c3)CC2)=C(c2ccc(Cl)cc2)C1 + COc1cc2nc(C)nc(NC(C)c3cc(N)cc(C(F)(F)F)c3)c2cc1OC1CCOC1 = 0.9
• COc1cc(Nc2ncc3c(n2)-c2ccc(Cl)cc2C(c2c(F)cccc2OC)=NC3)ccc1C(=O)O + CNCc1ccccc1-c1csc(C(C)Nc2nc(C)nc3cc(OC)c(OC)cc23)c1 = 0.26
• CCNC(=O)CC1N=C(c2ccc(Cl)cc2)c2cc(OC)ccc2-n2c(C)nnc21 (centres undefined) + CNCc1ccccc1-c1csc(C(C)Nc2nc(C)nc3cc(OC)c(OC)cc23)c1 = 0.15
• CCNC(=O)CC1N=C(c2ccc(Cl)cc2)c2cc(OC)ccc2-n2c(C)nnc21 (centres undefined) + CC1OCC2(CCN(c3cnc(Sc4ccnc(N)c4Cl)c(N)n3)CC2)C1N = 87.2
